Origin of measurements: ChEMBL document CHEMBL1955746

The reader will find reported Emax values listed item by item below.
Experimental System: P2Y purinoceptor 2 (Homo sapiens, UniProt P41231)
Sequence (P41231 whole entry): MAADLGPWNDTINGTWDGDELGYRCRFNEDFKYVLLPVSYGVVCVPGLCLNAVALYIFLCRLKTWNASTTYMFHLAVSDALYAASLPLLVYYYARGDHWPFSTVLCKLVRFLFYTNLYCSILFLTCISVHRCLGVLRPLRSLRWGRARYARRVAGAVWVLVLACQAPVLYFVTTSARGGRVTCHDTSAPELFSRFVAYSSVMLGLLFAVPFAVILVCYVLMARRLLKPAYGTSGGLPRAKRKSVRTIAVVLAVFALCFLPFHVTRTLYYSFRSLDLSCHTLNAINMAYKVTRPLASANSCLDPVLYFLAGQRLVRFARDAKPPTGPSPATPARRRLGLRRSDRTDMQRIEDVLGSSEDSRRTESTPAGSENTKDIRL
Experiment Summary: Agonist activity at human P2Y2 receptor expressed in human 1321N1 cells assessed as stimulation of PLC-induced [3H]inositol phosphate production at 100 uM after 30 mins by scintillation counting relative to UTP
Format: functional, cell-based
Remember to follow the number with its unit.

O=c1[nH]c(=O)n([C@@H]2O[C@H](CCP(=O)(O)O)[C@@H](O)[C@H]2O)cc1-c1cccs1 | 35%
O=c1ccn([C@@H]2O[C@H](CCP(=O)(O)O)[C@@H](O)[C@H]2O)c(=O)[nH]1 | 32%
O=c1[nH]c(=O)n([C@@H]2O[C@H](CCP(=O)(O)O)[C@@H](O)[C@H]2O)cc1-c1ccc2ccccc2c1 | 54%

Okay, next one:
Q: What value of Emax has been reported for the following molecule? O=c1ccn([C@@H]2O[C@H](OCP(=O)(O)O)[C@@H](O)[C@H]2O)c(=O)[nH]1
Ans: 19%
